- Tested System: human ether-à-go-go-related gene (hERG) potassium channel (human, UniProt Q12809);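 further: peak tail current of the secondary pulse compared with the same well before compound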
- Sequence (Q12809 whole entry, looked up): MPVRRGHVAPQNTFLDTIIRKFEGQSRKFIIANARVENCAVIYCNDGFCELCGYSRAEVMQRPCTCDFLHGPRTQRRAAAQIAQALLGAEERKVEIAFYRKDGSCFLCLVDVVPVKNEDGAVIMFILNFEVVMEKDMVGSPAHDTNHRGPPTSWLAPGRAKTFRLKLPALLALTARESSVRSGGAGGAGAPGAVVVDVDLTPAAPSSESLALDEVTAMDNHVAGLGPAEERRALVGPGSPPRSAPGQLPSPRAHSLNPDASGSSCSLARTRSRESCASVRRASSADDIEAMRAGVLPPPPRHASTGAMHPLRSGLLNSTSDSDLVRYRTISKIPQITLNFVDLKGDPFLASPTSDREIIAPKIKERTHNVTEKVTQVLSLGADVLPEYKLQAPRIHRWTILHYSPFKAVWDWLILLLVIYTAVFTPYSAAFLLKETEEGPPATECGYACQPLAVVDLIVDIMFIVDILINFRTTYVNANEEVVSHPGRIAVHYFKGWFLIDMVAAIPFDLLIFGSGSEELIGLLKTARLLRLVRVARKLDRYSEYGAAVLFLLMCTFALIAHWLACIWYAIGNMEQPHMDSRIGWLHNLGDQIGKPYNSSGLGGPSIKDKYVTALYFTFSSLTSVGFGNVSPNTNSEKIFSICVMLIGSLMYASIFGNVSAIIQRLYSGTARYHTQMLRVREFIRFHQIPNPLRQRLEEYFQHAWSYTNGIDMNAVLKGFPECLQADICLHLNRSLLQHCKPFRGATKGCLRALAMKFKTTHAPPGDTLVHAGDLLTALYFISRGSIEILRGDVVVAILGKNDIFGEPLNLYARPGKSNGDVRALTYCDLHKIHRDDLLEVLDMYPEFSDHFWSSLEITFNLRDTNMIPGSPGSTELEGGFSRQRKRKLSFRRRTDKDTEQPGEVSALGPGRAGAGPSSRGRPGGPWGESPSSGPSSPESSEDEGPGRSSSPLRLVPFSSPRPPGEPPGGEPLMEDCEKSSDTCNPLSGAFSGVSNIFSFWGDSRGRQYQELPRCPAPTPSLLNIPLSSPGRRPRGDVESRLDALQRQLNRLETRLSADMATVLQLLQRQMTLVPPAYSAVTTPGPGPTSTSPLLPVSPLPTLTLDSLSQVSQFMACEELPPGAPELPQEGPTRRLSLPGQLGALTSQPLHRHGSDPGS
- Assay Info: primary screen, population patch clamp on CHO cells stably expressing hERG; higher = less effect of the substance
About 14,000 (4.5%) of roughly 310,000 compounds showed an effect of 50% or more. The effect is printed as a negative number. The entries come from a sample that favours strong results as a whole.
Collected hERG current change (%, negative = inhibition) at 10uM values appear next to each entry.
Write the number in % without appending the unit.

CN1CCN(CCCNC(=O)c2ccc3c(c2)N(Cc2ccccc2)CCS3)CC1 :: -23.6
C=CCOC(=O)/C(=C\c1ccccc1)NC(=O)c1ccco1 :: 1.97

Fill blank: measured hERG current change (%, negative = inhibition) at 10uM of the molecule "O=C(c1ccc2c(c1)N(Cc1ccccc1)CCS2)N1CCOCC1" is ____. -29.7

Now the same for "O=C(NCCCN1CCCC1)c1ccc2c(c1)N(Cc1ccccc1)CCS2" -69.6

What do you have for "Cc1cc(C)nc(NS(=O)(=O)c2ccc(N)cc2)n1" ? 12

What do you have for "O=C(CCCCn1c(=S)[nH]c2ccsc2c1=O)NCc1ccco1" ? 16.6

Query "CCN1CCN(CCCNC(=O)c2ccc3c(c2)N(Cc2ccccc2)CCS3)CC1" next -39.3

One more molecule: "CN1CCSc2ccc(C(=O)NCc3ccccc3)cc21" -9.52

Moving on to the next molecule: "Cc1ccc(CN2CCSc3ccc(C(=O)N4CCC5(CC4)OCCO5)cc32)cc1" -49.1

Now give it for Cc1ccccc1NC(=S)NC(NC(=O)CF)C(Cl)(Cl)Cl (stereo not shown) too. 2.77

----------
- Tested System: human ether-à-go-go-related gene (hERG) potassium channel (human, UniProt Q12809);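 further: peak tail current of the secondary pulse compared with the same well before compound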
- Assay Info: primary screen, population patch clamp on CHO cells stably expressing hERG; higher = less effect of the substance
- Protocol: Briefly, Chinese hamster ovary (CHO) cells stably expressing the hERG channel were dislodged from tissue culture flasks and dispensed into PPC plates. […] During the recording, background leak currents were estimated by a 100 ms step to -80 mV from an initial holding potential of -70 mV and subtracted from the subsequent current measurement. The campaign was conducted in two phases using slight differences in recording protocol. […]
The whole screen tested about 310,000 compounds, of which about 14,000 (4.5%) showed an effect of 50% or more. Effects have a minus sign here. The entries come from a sample that favours strong results as a whole.
Property Label: hERG current change (%, negative = inhibition) at 10uM (%)
Report as a plain number; the unit % is understood.

Cc1ccc(N2CC(C(=O)Nc3ccc4c(c3)OCO4)CC2=O)cc1 (centres unmarked) :: 9.48

# hERG current change (%, negative = inhibition) at 10uM lookup, item CC1CCCCC1NC(=O)CCNS(=O)(=O)c1ccc2c(c1)CCC(=O)N2 (centres unmarked) 6.25

----------
- Tested System: human ether-à-go-go-related gene (hERG) potassium channel (human);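 further: peak tail current of the secondary pulse compared with the same well before compound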
- Assay Info: primary screen, population patch clamp on CHO cells stably expressing hERG; higher = less effect of the substance
The campaign covered roughly 310,000 compounds. About 14,000 (4.5%) showed an effect of 50% or more. Effects have a minus sign here. What follows is part of a selection rich in strong results, with near analogues and random picks from the rest.
Property Label: hERG current change (%, negative = inhibition) at 10uM (%)
Just the number in %, nothing appended.

CC(=O)Nc1ccc([N+](=O)[O-])cn1 :: 24.4
CC(=O)c1ccc(N2CCN(C(=O)c3ccc(NC4=NC5CS(=O)(=O)CC5S4)cc3)CC2)cc1 (stereo not shown) :: -1.77
Cc1cccc(Nc2ccc([N+](=O)[O-])cn2)c1 :: 10.9

Please report the recorded hERG current change (%, negative = inhibition) at 10uM for Cc1cc(C)cc(NC(=O)C2C3C=CC4(O3)C2C(=O)N(CCCN2CCCCC2)C4C(=O)NC2CCCCC2)c1 (stereo not shown) . 20.7

Similarly, "CCC(CC)C(=O)Nc1ccc([N+](=O)[O-])cn1" ? 10.8

Cool, now "Cc1cccc(OCCNc2ccc([N+](=O)[O-])cn2)c1" -21.3

Repeat for the following molecule: CC(Oc1cccc(Cl)c1)C(=O)Nc1ccncc1 (stereo not shown) 3.81

Try CCC(C(=O)Nc1ccc([N+](=O)[O-])cn1)c1ccccc1 (stereo not shown) next. -67.4

Same question, Cc1csc(NC(=O)C(C)Oc2ccc(Cl)cc2C)n1 (stereo not shown) this time -21

Can you handle "C/C(=N\OCc1ccccc1C#N)c1cc2ccccc2o1" next? 0.146
